EXPERIMENTAL_DETAILS: inhibitors of larval lipid processing in zebrafish, primary screen, whole organism, PED6 fluorescence, gall bladder and intestine (AID 686);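 further: larvae 5 to 7 days old with five fish per well; signal comes from phospholipase A2 cleavage of quenched PED6 carried via bile; overnight exposure to compound and PED6 before scoring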
CONDITION_PARAMETERS: Zebrafish larvae PED6 lipid processing, fluorescence scoring; screened at 20 µM (by protocol)
Active and inactive are the calls of the source.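 How the source made its calls: active means a full or partial loss of lipid-probe fluorescence in the fish gall bladder, intestine or both, judged by eye; inactive means no fluorescence loss, or compound toxic to the fish.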
Outcomes: y for active, n for inactive

[
  {
    "COMPOUND": "Cc1ccc(C2C3CN(C(C)C)CC=C3C(C#N)=C(N)C2(C#N)C#N)cc1 (stereo not drawn)",
    "ASSIGNED_CLASS": "n"
  },
  {
    "COMPOUND": "COCCCNC(=O)c1c(N)n(/N=C/c2cccs2)c2nc3ccccc3nc12",
    "ASSIGNED_CLASS": "n"
  },
  {
    "COMPOUND": "CCc1cccc(CC)c1N(COC)C(=O)Cn1nnc2ccccc21",
    "ASSIGNED_CLASS": "n"
  },
  {
    "COMPOUND": "CC1(C)Cc2c(C#N)c(NCc3ccco3)nc(-c3ccco3)c2CO1",
    "ASSIGNED_CLASS": "y"
  },
  {
    "COMPOUND": "S=c1[nH]nc(-c2ccco2)n1Cc1ccccc1",
    "ASSIGNED_CLASS": "n"
  },
  {
    "COMPOUND": "Cc1nc(NCCN)c(C#N)c2c1COC(C)(C)C2",
    "ASSIGNED_CLASS": "n"
  },
  {
    "COMPOUND": "Cn1c(=O)oc2cc(C(=O)c3ccccc3)ccc21",
    "ASSIGNED_CLASS": "n"
  },
  {
    "COMPOUND": "Cc1cc(C)c(-n2c(O)c(C=NCCN3CCOCC3)c(=O)[nH]c2=O)c(C)c1",
    "ASSIGNED_CLASS": "n"
  },
  {
    "COMPOUND": "C[C@@H]1C[C@H](Nc2ccccc2)c2ccccc2N1C(=O)c1cccnc1",
    "ASSIGNED_CLASS": "n"
  },
  {
    "COMPOUND": "COc1ccc(C2=Nn3c(nnc3-c3cccnc3)SC2)cc1OC",
    "ASSIGNED_CLASS": "n"
  },
  {
    "COMPOUND": "CCOC(=O)COn1c(=O)c(-c2ccco2)[n+]([O-])c2ccccc21",
    "ASSIGNED_CLASS": "n"
  },
  {
    "COMPOUND": "COc1cccc(C2C(C(=O)c3cc4ccccc4o3)=C(O)C(=O)N2CCN(C)C)c1OC (stereo not drawn)",
    "ASSIGNED_CLASS": "n"
  },
  {
    "COMPOUND": "N#Cc1ccc(-c2cccnc2)nc1SCC(=O)Nc1sc2c(c1C#N)CCC2",
    "ASSIGNED_CLASS": "n"
  },
  {
    "COMPOUND": "COCCNc1cc(C)c(C#N)c2nc3ccccc3n12",
    "ASSIGNED_CLASS": "n"
  },
  {
    "COMPOUND": "COc1ccc(CN2CCC(=O)NC2=O)cc1",
    "ASSIGNED_CLASS": "n"
  },
  {
    "COMPOUND": "c1csc(Cc2nn3c(-c4ccncc4)nnc3s2)c1",
    "ASSIGNED_CLASS": "n"
  },
  {
    "COMPOUND": "CCOC(=O)c1c(NC(=O)CCN2CCOCC2)sc2c1CC(C)(C)OC2",
    "ASSIGNED_CLASS": "n"
  },
  {
    "COMPOUND": "CCOC(=O)c1[nH]c2ccc(Br)cc2c1NC(=O)CCN1CCN(C(=O)OCC)CC1",
    "ASSIGNED_CLASS": "n"
  },
  {
    "COMPOUND": "COc1ccc(CCCNC(=O)CC#N)cc1OC",
    "ASSIGNED_CLASS": "n"
  },
  {
    "COMPOUND": "CCCC(CCC)C(=O)OC1C[C@H]2CC[C@@H](C1)[N+]2(C)C (stereo partly drawn)",
    "ASSIGNED_CLASS": "n"
  },
  {
    "COMPOUND": "O=C1NC2c3ccccc3C(=O)N2c2c1cnn2-c1ccccc1 (stereo not drawn)",
    "ASSIGNED_CLASS": "n"
  },
  {
    "COMPOUND": "O=C(c1coc(=O)c(Br)c1)N1CCCc2ccccc21",
    "ASSIGNED_CLASS": "n"
  },
  {
    "COMPOUND": "C=CCNc1nnc(SC2CC(=O)N(c3ccc(OC)cc3)C2=O)s1 (stereo not drawn)",
    "ASSIGNED_CLASS": "n"
  },
  {
    "COMPOUND": "CCCCc1c(O)nc(SCCN(C)C)n(-c2ccccc2)c1=O",
    "ASSIGNED_CLASS": "n"
  },
  {
    "COMPOUND": "Cc1ccc(S(=O)(=O)N2CCN(c3nc(C(C)C)c4c(c3C#N)CC(C)(C)OC4)CC2)cc1",
    "ASSIGNED_CLASS": "n"
  },
  {
    "COMPOUND": "COc1cccc(COc2nc3c(c(=O)n(C)c(=O)n3C)n2C)c1",
    "ASSIGNED_CLASS": "n"
  },
  {
    "COMPOUND": "CCCCCCOC(=O)CCn1[nH]c(=O)c2ccccc2c1=O",
    "ASSIGNED_CLASS": "n"
  },
  {
    "COMPOUND": "Cc1cc(-c2ccc(F)cc2)nc2cc(C(N)=O)nn12",
    "ASSIGNED_CLASS": "n"
  },
  {
    "COMPOUND": "CN(C)c1nc2n(c(=O)n1)C(C#N)CS2 (stereo not drawn)",
    "ASSIGNED_CLASS": "n"
  },
  {
    "COMPOUND": "CN(C)c1ccc(-c2nn3c(-c4ccc(Cl)cc4)nnc3s2)cc1",
    "ASSIGNED_CLASS": "n"
  },
  {
    "COMPOUND": "Oc1ccc(Br)cc1CNn1cnnc1",
    "ASSIGNED_CLASS": "n"
  },
  {
    "COMPOUND": "CCCCOc1ccc(OCCCN2CCOCC2)cc1",
    "ASSIGNED_CLASS": "n"
  },
  {
    "COMPOUND": "O=c1c2ccccc2[nH]c(=S)n1CCN1CCC(=C(c2ccc(F)cc2)c2ccc(F)cc2)CC1",
    "ASSIGNED_CLASS": "n"
  },
  {
    "COMPOUND": "O=C(c1cccc(Cl)c1)N1CCN(C(=O)c2ccccc2F)CC1",
    "ASSIGNED_CLASS": "n"
  },
  {
    "COMPOUND": "Cc1ccc(-c2nnc(OCCN3CCOCC3)c3ccccc23)cc1",
    "ASSIGNED_CLASS": "n"
  },
  {
    "COMPOUND": "CSc1nnc(N(CCC#N)CCC#N)s1",
    "ASSIGNED_CLASS": "n"
  },
  {
    "COMPOUND": "CSc1nc(NC(C)=O)nc(C)c1Cl",
    "ASSIGNED_CLASS": "n"
  },
  {
    "COMPOUND": "COc1cc(C)nc(Oc2ccc(=O)n(C)n2)n1",
    "ASSIGNED_CLASS": "n"
  }
]

* * *

MEASURED_TARGET: Dual specificity protein phosphatase 6 (Homo sapiens) (UniProt Q16828)
Sequence (Q16828 whole entry, looked up): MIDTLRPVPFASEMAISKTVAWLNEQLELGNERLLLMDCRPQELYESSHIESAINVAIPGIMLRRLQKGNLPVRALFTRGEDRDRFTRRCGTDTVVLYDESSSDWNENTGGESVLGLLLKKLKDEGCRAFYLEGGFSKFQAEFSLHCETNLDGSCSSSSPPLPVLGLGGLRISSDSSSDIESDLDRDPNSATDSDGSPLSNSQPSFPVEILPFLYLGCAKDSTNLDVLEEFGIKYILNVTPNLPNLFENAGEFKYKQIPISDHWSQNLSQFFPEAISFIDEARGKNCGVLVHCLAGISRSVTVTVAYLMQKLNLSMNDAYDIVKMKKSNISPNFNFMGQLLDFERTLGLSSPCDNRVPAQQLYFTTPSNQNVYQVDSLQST
EXPERIMENTAL_DETAILS: DUSP6 inhibitors restoring Erk phosphorylation by chemical complementation, primary imaging in DUSP6-transfected HeLa (AID 609);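 further: phospho-Erk level distribution per well compared with pooled transfected vehicle control wells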
CONDITION_PARAMETERS: HeLa MKP-3 transfected, phospho-Erk imaging KS statistic; at 10 µM; active compounds read high; cells stimulated with TPA for 15 min
Give t when the value for inhibition is at least 20%. Give f when it is less.

[
  {
    "COMPOUND": "O=C1CCC(=O)N1CN(Cc1ccco1)CN1C(=O)CCC1=O",
    "ASSIGNED_CLASS": "t"
  },
  {
    "COMPOUND": "Cc1nnc(C)n1/N=C/c1cccn1C",
    "ASSIGNED_CLASS": "f"
  },
  {
    "COMPOUND": "Cc1cc(C(F)(F)F)nn1CC(=O)NCC1CCCO1 (stereo not given)",
    "ASSIGNED_CLASS": "f"
  },
  {
    "COMPOUND": "O=C(OCCN1CCOCC1)c1ccc(OCCN2CCOCC2)cc1",
    "ASSIGNED_CLASS": "f"
  },
  {
    "COMPOUND": "CCC(=O)Nc1cc(-c2nn(C)c(=O)c3ccccc23)ccc1N1CCCCC1",
    "ASSIGNED_CLASS": "f"
  },
  {
    "COMPOUND": "N/C(CCCN1CCCCC1)=N/O",
    "ASSIGNED_CLASS": "f"
  },
  {
    "COMPOUND": "Cc1ccc(SCc2[nH]nc3c2C(c2ccc(C)o2)C(C#N)=C(N)O3)cc1 (stereo not given)",
    "ASSIGNED_CLASS": "t"
  },
  {
    "COMPOUND": "CCCCCCCCNC(C)C(O)c1ccc(SC(C)C)cc1 (stereo not given)",
    "ASSIGNED_CLASS": "t"
  },
  {
    "COMPOUND": "COc1ccc(C(=O)N2CCC(N3CCN(c4ccccc4)CC3)CC2)cc1OC",
    "ASSIGNED_CLASS": "f"
  },
  {
    "COMPOUND": "CC(C)OC(=O)C(C#N)c1nc2ccccc2nc1N1CCCC1 (stereo not given)",
    "ASSIGNED_CLASS": "t"
  }
]
